Origin of measurements: patent US20200024322A1

target: T1, human GLP-1 receptor (human, UniProt P43220 24-463); test: [125I]-GLP-1 competition SPA, hGLP-1R membranes
T1 construct: whole, on cells; also called hGLP-1R; hGLP1R
What Ki was measured for each of the following?

Reference set, count: 5
input: Ki lookup needed for XXEGTFTSDYSIXLDKKAQXAFIEYLIAGGPSSGAPPPS (D-Tyr1; Aib2; αMeL13; K17((2-[2-(2-Amino-ethoxy)-ethoxy]-acetyl)2-(γ-Glu)-CO-(CH2)18-CO2H); Aib20; C-terminal NH2) [Example 340] , thanks.
output: 2.08 nM

input: Which value of Ki has been reported for YXEGTFTSDYSIXLDEKAQXAFIEYLIEGGPSSGAPPPS (Aib2; αMeL13; K17((2-[2-(2-Amino-ethoxy)-ethoxy]-acetyl)2-(γ-Glu)-CO-(CH2)16-CO2H); Aib20; C-terminal NH2) [Example 323] in the records?
output: 1.65 nM

input: Return reported Ki; argument: XXEGTXTSDYSIXLDKKAQXAFIEYLIEGGPSSGAPPPS (D-Tyr1; Aib2; αMeF(2F)6; αMeL13; K17((2-[2-(2-Amino-ethoxy)-ethoxy]-acetyl)2-(γ-Glu)-CO-(CH2)18-CO2H); Aib20; C-terminal NH2) [Example 336]
output: 2.44 nM

input: Give the measured Ki of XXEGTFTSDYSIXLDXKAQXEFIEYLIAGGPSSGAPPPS (D-Tyr1; Aib2; αMeL13; Orn16; K17((2-[2-(2-Amino-ethoxy)-ethoxy]-acetyl)2-(γ-Glu)-CO-(CH2)18-CO2H); Aib20; C-terminal NH2) [Example 349] .
output: 1.72 nM

input: Could you share which Ki value was measured for XXEGTFTSDYSIXLDXKAQXAFIXYLIEGGPSSGAPPPS (D-Tyr1; Aib2; αMeL13; Orn16; K17((2-[2-(2-Amino-ethoxy)-ethoxy]-acetyl)2-(γ-Glu)-CO-(CH2)18-CO2H); Aib20; D-Glu24; C-terminal NH2) [Example 357] ?
output: 7.02 nM

Would you kindly look at the next entry?
input: Request the reported Ki associated with XXEGTFTSDYSIXLDEKAQXAFIEYLIAGGPSSGAPPPS (D-Tyr1; Aib2; αMeL13; K17((2-[2-(2-Amino-ethoxy)-ethoxy]-acetyl)2-(γ-Glu)-CO-(CH2)18-CO2H); Aib20; C-terminal NH2) [Example 341]
output: 6.49 nM
